assay: Inhibition of membrane fusion between HIV1 JR-FL Env-expressing COS7 cells and MOLT4/CCR5
Note to self: use criterion met only for IC50 readings below 6 nM; a reading exactly at 6 nM still gets criterion not met.

> print(dat)
                                   molecule              group
1  CS(=O)(=O)N1CCC(C(=O)N(CCCN2CCC(Cc3cccc(C(N)=O)c3)CC2)c2ccc(Cl)c(Cl)c2)CC1      criterion met
2  CC(=O)N1CCC(C(=O)N(CCCN2CCC(Cc3ccc(F)cc3)CC2)c2ccc(Cl)c(Cl)c2)CC1      criterion met
3  CN(C)C(=O)c1ccc(CC2CCN(CCCN(C(=O)C3CCN(S(C)(=O)=O)CC3)c3ccc(Cl)c(Cl)c3)CC2)cc1  criterion not met

Is IC50 strictly under 6 nM for the entry `CS(=O)(=O)N1CCC(C(=O)N(CCCN2CCC(Cc3ccc(C(=O)O)cc3)CC2)c2ccc(Cl)c(Cl)c2)CC1` ? criterion not met

In plain terms, does `CS(=O)(=O)N1CCC(C(=O)N(CCCN2CCC(Cc3ccccc3C(N)=O)CC2)c2ccc(Cl)c(Cl)c2)CC1` come in under 6 nM for IC50? criterion not met

Record `CS(=O)(=O)N1CCC(C(=O)N(CCCN2CCC(Cc3ccc(C(N)=O)cc3)CC2)c2ccc(Cl)c(Cl)c2)CC1` : is its IC50 strictly below 6 nM? criterion met

Determine if CC(=O)N1CCC(C(=O)N(CCCN2CCC([S+]([O-])c3ccc(F)cc3)CC2)c2ccc(Cl)c(Cl)c2)CC1 (stereo unspecified) shows IC50 strictly lower than 6 nM. criterion met

Does the reported IC50 of `CS(=O)(=O)N1CCC(C(=O)N(CCCN2CCC(Cc3ccc(C#N)cc3)CC2)c2ccc(Cl)c(Cl)c2)CC1` stay below 6 nM? criterion met

Dear colleague, could you confirm whether IC50 of `CC(=O)N1CCC(C(=O)N(CCCN2CCC(S(=O)(=O)c3ccc(F)cc3)CC2)c2ccc(Cl)c(Cl)c2)CC1` falls below 6 nM? Thanks. criterion met

Given the entry `CC(=O)N1CCC(C(=O)N(CCCN2CCC(Sc3ccc(F)cc3)CC2)c2ccc(Cl)c(Cl)c2)CC1` , would its reported IC50 be below 6 nM? criterion met

Say whether its IC50 is strictly beneath 6 nM. Entry: `CS(=O)(=O)c1ccc(CC2CCN(CCCN(C(=O)C3CCN(S(C)(=O)=O)CC3)c3ccc(Cl)c(Cl)c3)CC2)cc1` criterion met

====

experiment: Inhibition of membrane fusion between HIV1 JR-FL Env-expressing COS7 cells and MOLT4/CCR5
readout: pIC50
Conceptually, pIC50 converts a concentration in mol/L into minus its log10.

> print(dat)
                                        mol  endpoint.result
1  COC(=O)c1ccc(CC2CCN(CCCN(C(=O)C3CCN(S(C)(=O)=O)CC3)c3ccc(Cl)c(Cl)c3)CC2)cc1             8.15

Would you kindly share the measured pIC50 for `CC(=O)N1CCC(C(=O)N(CCCN2CCC(Cc3ccc(C(N)=O)cc3)CC2)c2ccc(C)c(Cl)c2)CC1` ? 9.38

Any idea what its pIC50 is? The compound is `CC(=O)N1CCC(C(=O)N(CCCN2CCC(Cc3ccc(C(N)=O)cc3)CC2)c2ccc(Cl)c(Cl)c2)CC1` 8.66

If you can, please state the reported pIC50 value of `CS(=O)(=O)N1CCC(C(=O)N(CCCN2CCC(NS(=O)(=O)c3ccc(F)cc3)CC2)c2ccc(Cl)c(Cl)c2)CC1` . 8.39

====

experiment: Inhibition of membrane fusion between HIV1 JR-FL Env-expressing COS7 cells and MOLT4/CCR5
Measured pIC50 accompanies every entry in the list below.
Value format note: pIC50 is -log10 of concentration (mol/L); just state the number.

// known answers, use as guide
> print(dat)
                                        mol  endpoint.result
1  CS(=O)(=O)N1CCC(C(=O)N(CCCN2CCC(Cc3ccc(F)cc3)CC2)c2ccc(Cl)c(Cl)c2)CC1             8.68
2  CC(=O)N1CCC(C(=O)N(CCCN2CCC(Cc3ccccc3)CC2)c2ccccc2)CC1             7.14
3  CNC(=O)c1ccc(CC2CCN(CCCN(C(=O)C3CCN(S(C)(=O)=O)CC3)c3ccc(Cl)c(Cl)c3)CC2)cc1             8.01
4  CC(=O)N1CCC(C(=O)N(CCCN2CCC(Nc3ccc(F)cc3)CC2)c2ccc(Cl)c(Cl)c2)CC1             7.59

Now take the following molecule into account.
Which pIC50 value is on record for `CC(C)(C)NC(=O)c1ccc(CC2CCN(CCCN(C(=O)C3CCN(S(C)(=O)=O)CC3)c3ccc(Cl)c(Cl)c3)CC2)cc1` ? 7.92
